Would you mind telling me the reported pKd of each entry?
Target: T1, human GITR-Fc (human, UniProt Q9Y5U5 26-162)
T1 construct: also called recombinant hGITR; wild type human GITR-Fc
T1 sequence: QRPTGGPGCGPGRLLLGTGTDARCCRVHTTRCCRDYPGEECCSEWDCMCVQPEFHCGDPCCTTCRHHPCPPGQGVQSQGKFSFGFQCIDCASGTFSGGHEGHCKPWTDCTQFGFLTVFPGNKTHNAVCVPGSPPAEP
Test: BLI Octet RED384, ABP on AHQ sensor, 100 nM antigen, single concentration;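 also: association and dissociation each tracked over 180 s, with dissociation run in antigen-free buffer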
One number for each entry, as −log10 of the molar value.

// for each binder below, give its pKd
1. ABP18 (antibody, human IgG1, kappa, N297A, V domains shown) VH: QVQLVQSGAEVKKPGSSVKVSCKASGGTFVRYAISWVRQAPGQGLEWMGGIIPIFGEAQYAQKFRGRATITADESTSTAYMELSSLRSEDTAVYYCAREGYYYGALPYWGQGTLVTVSS VL: EIVLTQSPATLSLSPGERATLSCRASQSVSSYLAWYQQKPGQAPRLLIYDASNRATGIPARFSGSGSGTDFTLTISSLEPEDFAVYYCQQHSVFPPTFGGGTKVEIKR
2. ABP40 (antibody, human IgG1, kappa, N297A, V domains shown, IgG1 N297A, bivalent; also called non-TM ABP corresponding to ABP7) VH: QVQLQESGPGLVKPSETLSLTCAVSGYSISSEYMWGWIRQPPGKGLEWIGLIYHSGKTYYNPSLKSRVTISVDTSKNQFSLKLSSVTAADTAVYYCAREADRGYGDYGGHHAFDIWGQGTMVTVSS VL: DIQMTQSPSSLSASVGDRVTITCRASQSINSYLNWYQQKPGKAPKLLIYAASSLDSGVPSRFSGSGSGTDFTLTISSLQPEDFATYYCQQEYNTPPTFGGGTKVEIKR
3. ABP15 (antibody, human IgG1, kappa, N297A, V domains shown) VH: QVQLVQSGAEVKKPGSSVKVSCKASGGTFSSYAISWVRQAPGQRLEWMGGIIPISGFTNYAQKFQGRVTITADESTSTAYMELSSLRSEDTAVYYCAREGGHYYSGWPYWGQGTLVTVSS VL: EIVLTQSPATLSLSPGERATLSCRASQSVSSYLAWYQQKPGQAPRLLIYDASNRATGIPARFSGSGSGTDFTLTISSLEPEDFAVYYCQQRLVFPPTFGGGTKVEIKR

8.40
8.66
8.48
